Target: human KV 1.5 (IKur) (Homo sapiens)
Construct: expressed in transfected cells
Assay: block of IKur current in patch clamped L-929 cells expressing human Kv1.5
Assay type: cell-based
Details: L929, 0.3 μM; patch clamped mammalian L-929 cells stably expressing human Kv1.5; read-out: KV1_5% Inh L929 @0.3 μM
Endpoint Label: inhibition at 0.3 µM (%)

// query Given NS(=O)(=O)c1cncc(-c2nc(NCc3ccncn3)c3c(-c4ccccc4)ccn3n2)c1 , respond with its inhibition at 0.3 µM.
// result 90.3

// query Given CCOc1ncc(-c2nc(NCc3ccccn3)c3c(-c4ccccc4)ccn3n2)cc1S(N)(=O)=O , respond with its inhibition at 0.3 µM.
// result 95

// query Given CC(=O)Nc1cccc(-c2nc(NCc3ccccn3)c3c(-c4ccccc4)ccn3n2)c1 , respond with its inhibition at 0.3 µM.
// result 96.6

// query Given NS(=O)(=O)c1cncc(-c2nc(NCC3CCCCC3)c3c(-c4ccccc4)ccn3n2)c1 , respond with its inhibition at 0.3 µM.
// result 83.9

---

Target: human KV 1.5 (IKur) (Homo sapiens, UniProt P22460)
Construct: expressed in transfected cells
Sequence (P22460 whole entry): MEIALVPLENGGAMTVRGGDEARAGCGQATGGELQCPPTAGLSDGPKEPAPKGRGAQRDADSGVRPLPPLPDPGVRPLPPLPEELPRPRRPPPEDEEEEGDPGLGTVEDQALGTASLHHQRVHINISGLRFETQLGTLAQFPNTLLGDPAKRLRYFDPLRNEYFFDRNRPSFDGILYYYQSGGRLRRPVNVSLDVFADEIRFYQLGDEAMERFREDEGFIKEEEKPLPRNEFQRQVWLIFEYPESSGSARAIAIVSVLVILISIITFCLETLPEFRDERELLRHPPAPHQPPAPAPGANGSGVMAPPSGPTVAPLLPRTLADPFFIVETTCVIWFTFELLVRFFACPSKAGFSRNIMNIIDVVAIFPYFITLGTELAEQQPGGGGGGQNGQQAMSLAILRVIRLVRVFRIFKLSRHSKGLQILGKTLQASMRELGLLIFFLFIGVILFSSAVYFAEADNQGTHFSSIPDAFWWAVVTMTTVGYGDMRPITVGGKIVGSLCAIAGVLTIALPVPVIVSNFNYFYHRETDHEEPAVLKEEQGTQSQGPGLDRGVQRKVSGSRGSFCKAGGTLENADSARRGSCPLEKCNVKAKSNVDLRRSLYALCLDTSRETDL
Assay: block of IKur current in patch clamped L-929 cells expressing human Kv1.5
Format: cell-based
Settings: L929, 0.3 μM; patch clamped mammalian L-929 cells stably expressing human Kv1.5; read-out: KV1_5% Inh L929 @0.3 μM
Endpoint Label: inhibition at 0.3 µM (%)

// query Given Nc1cncc(-c2nc(NCC3CCCCC3)c3c(-c4ccccc4)ccn3n2)c1 , respond with its inhibition at 0.3 µM.
// result 88.3

// query Given CCOC(=O)CS(=O)(=O)Nc1cncc(-c2nc(NCc3ccccn3)c3c(-c4ccccc4)ccn3n2)c1 , respond with its inhibition at 0.3 µM.
// result 88.2

// query Given N#Cc1ccccc1-c1ccn2nc(-c3cncc(S(N)(=O)=O)c3)nc(NCc3ccccn3)c12 , respond with its inhibition at 0.3 µM.
// result 80.9

// query Given CCOC(=O)Nc1cncc(-c2nc(NCc3ccccn3)c3c(-c4ccccc4)ccn3n2)c1 , respond with its inhibition at 0.3 µM.
// result 97

// query Given OCc1cncc(-c2nc(NCc3ccccc3)c3c(-c4ccccc4)ccn3n2)c1 , respond with its inhibition at 0.3 µM.
// result 96.6

// query Given COC(=O)C(CS(N)(=O)=O)NC(=O)c1cncc(-c2nc(NCc3ccccc3)c3c(-c4ccccc4)ccn3n2)c1 (centres unmarked) , respond with its inhibition at 0.3 µM.
// result 90.1

// query Given CC(C)Oc1ncc(-c2nc(NCc3ccccn3)c3c(-c4ccccc4)ccn3n2)cc1S(N)(=O)=O , respond with its inhibition at 0.3 µM.
// result 95.1

// query Given N#Cc1cccc(-c2ccn3nc(-c4cncc(N)c4)nc(NCc4ccccn4)c23)c1 , respond with its inhibition at 0.3 µM.
// result 80.3

---

Target: human KV 1.5 (IKur) (Homo sapiens)
Construct: expressed in transfected cells
Test: block of IKur current in patch clamped L-929 cells expressing human Kv1.5
Format: cell-based
Conditions: L929, 0.3 μM; patch clamped mammalian L-929 cells stably expressing human Kv1.5; read-out: KV1_5% Inh L929 @0.3 μM
Text: Assays to determine the degree of activity of a compound as an IKur inhibitor are well known in the art and are described in references such as J. Gen. Physiol., 101(4):513-543 (April 1993), and Br. J. Pharmacol., 115(2):267-274 (May 1995). Synders, D. J. et al., “A rapidly activating and slowly inactivating potassium channel cloned from human heart: functional analysis after stable mammalian cell culture expression”, J. Gen. Physiol., 101:513-543 (1993). • 2. […]
Endpoint Label: inhibition at 0.3 µM (%)

// query Given N#Cc1ccc(-c2nc(NCc3ccccc3)c3c(-c4ccccc4)ccn3n2)cn1 , respond with its inhibition at 0.3 µM.
// result 96.9

// query Given NS(=O)(=O)c1cc(-c2nc(NCc3ccccc3)c3c(-c4ccccc4)ccn3n2)cnc1O , respond with its inhibition at 0.3 µM.
// result 91.1

// query Given NS(=O)(=O)c1cncc(-c2nc(NCc3ccccc3)c3c(-c4ccccc4)ccn3n2)n1 , respond with its inhibition at 0.3 µM.
// result 95.5

// query Given NC(=O)c1ccc(-c2nc(NCc3ccccc3)c3c(-c4ccccc4)ccn3n2)cn1 , respond with its inhibition at 0.3 µM.
// result 97

// query Given NS(=O)(=O)c1cncc(-c2nc(NCc3cnccn3)c3c(-c4ccccc4F)ccn3n2)c1 , respond with its inhibition at 0.3 µM.
// result 98.5

// query Given NS(=O)(=O)c1cncc(-c2nc(NCc3ncc[nH]3)c3c(-c4ccccc4)ccn3n2)c1 , respond with its inhibition at 0.3 µM.
// result 78.7

P. NS(=O)(=O)c1cncc(-c2nc(N3Cc4ccccc4C3)c3c(-c4ccccc4)ccn3n2)c1
Q. O=C(O)CCNC(=O)c1cncc(-c2nc(NCc3ccccc3)c3c(-c4ccccc4)ccn3n2)c1
// query Select one. Lower inhibition at 0.3 µM: P or Q Answer with the label corresponding to your selection.
// result Q
(Q: 55.3%, P: 93.8%)
